Reference source for all entries: paper PMC11513892

Assignment: determine reported t(1/2), Mouse Microsomes for the given compounds.
# ASSAY_NOTES: Clearance in mouse liver microsomes
# Format: in vitro ADME
# TEST_PARAMETERS: CSV supplement

{"COMPOUND": "CC(C)(C)OC(=O)N[C@H]1CCc2ccc(cc2)Oc2ccc(cc2NC(=O)c2ccccn2)C(=O)CNC(=O)[C@H](Cc2ccccc2)NC1=O [Compound 5]", "t(1/2), Mouse Microsomes": "<3 min"}
{"COMPOUND": "CC(=O)Nc1cc2ccc1Oc1ccc(cc1)C[C@H](NC(=O)OC(C)(C)C)C(=O)N[C@@H](Cc1ccccc1)C(=O)NCC2=O [Compound 2]", "t(1/2), Mouse Microsomes": "6,0 min"}

Lookup: Field request: t(1/2), Mouse Microsomes | item: CC(C)(C)OC(=O)N[C@H]1Cc2ccc(cc2)Oc2ccc(cc2NC(=O)c2ccccn2)CCNC(=O)[C@H](Cc2ccccc2)NC1=O [Compound 6]
Found: <3 min

----------
# Tested on: T. b. rhodesiense
# ASSAY_NOTES: Growth of T. b. rhodesiense trypomastigotes in axenic culture
# Format: cell-based, Trypanosoma brucei rhodesiense
# TEST_PARAMETERS: Trypanosoma brucei, RHODESIENSE; Table S1; mean (SD), 2 to 14 measurements; unit not given in Table S1; read-out: In vitro potency, T. b. rhodesiense
# Procedure: We previously reported the synthesis of a series of macrocycles, including 1 (Figure 2A), designed to investigate how structural features influence molecular chameleonicity.[15],[21] […] For the two Trypanosoma brucei species, the reduction in trypomastigote growth in culture medium was determined after the addition of 1–3. For T. cruzi, the intracellular parasite growth in infected human fibroblasts (MRC-5 cell line) was assessed in the presence and absence of the three inhibitors. […]
MEASUREMENT_LABEL: pEC50
One number for each entry, as −log10 of the molar value.

{"MOLECULE": "CC(C)(C)C(=O)N[C@H]1Cc2ccc(cc2)Oc2ccc(cc2NC(=O)c2ccccn2)C(=O)CNC(=O)[C@H](Cc2ccccc2)NC1=O [Compound 12]", "OBSERVED": 4.68}

// switching to the query molecule
Lookup: Item: CC(=O)N[C@H]1Cc2ccc(cc2)Oc2ccc(cc2NC(=O)c2ccccn2)C(=O)CNC(=O)[C@H](Cc2ccccc2)NC1=O [Compound 11] Test system: T. b. rhodesiense Read-out: pEC50 Value: ?
Found: 4.62

----------
# ASSAY_NOTES: Clearance in human microsomes
# Format: in vitro ADME
# TEST_PARAMETERS: human, microsomes; CSV supplement; read-out: CLint in vitro Human Microsomes
Assignment: determine reported microsomal CLint for the given compounds.

{"MOLECULE": "CC(C)(C)OC(=O)N[C@H]1CCc2ccc(cc2)Oc2ccc(cc2NC(=O)c2ccccn2)C(=O)CNC(=O)[C@H](Cc2ccccc2)NC1=O", "OBSERVED": "> 578 µL/min/mg"}
{"MOLECULE": "COc1ccc(C[C@H](NC(=O)OC(C)(C)C)C(=O)N[C@@H](Cc2ccccc2)C(=O)NCC(=O)c2cccc(NC(=O)c3ccccn3)c2)cc1", "OBSERVED": "> 578 µL/min/mg"}

// switching to the query compound
Lookup: Field request: microsomal CLint | item: `CC(C)(C)OC(=O)N[C@H]1Cc2ccc(cc2)Oc2ccc(cc2NC(=O)c2ccccn2)C(=O)CNC(=O)[C@H](Cc2ccccc2)NC1=O`
Found: > 578 µL/min/mg
